Provide the recorded logP for the entries that follow.
Simply state the number, no unit and no words.

Given CCOC(=O)C(C)N(C(=O)c1ccccc1)c1ccc(Cl)c(Cl)c1 (racemic) , state its recorded logP.
4.57

Entry CCN(CC)C(=O)C(Cl)=C(C)OP(=O)(OC)OC : reported logP = ?
1.34

Recorded logP of COc1cc(Cl)c(OC)cc1Cl , please.
3.46

Report logP for Cc1nc(C)c(Cl)c(O)c1Cl please.
0.5

What logP value was documented for this compound, CC(C)Oc1cc(-n2nc(C(C)(C)C)oc2=O)c(Cl)cc1Cl ?
4.09

Given the entry C=C1C(CCl)(CCl)C2(Cl)C(Cl)C(Cl)C1(Cl)C2(Cl)Cl (mixture of isomers) , report its measured logP.
5.5

Entry under review: Brc1c(Br)c(Br)c(Br)c(Br)c1Br . Reported logP?
6.51

Endpoint output: logP of O=C(O)COc1nc(Cl)c(Cl)cc1Cl . Value?
2.09
